# Lookup of reported koff keyed by entry
- target_or_system: T1, hNav1.7-loopA3-llama Fc fusion (human)
- T1 construct: also called hNav1.7-loopA3-llFc; loopA3-llamaFc chimera
- T1 chain: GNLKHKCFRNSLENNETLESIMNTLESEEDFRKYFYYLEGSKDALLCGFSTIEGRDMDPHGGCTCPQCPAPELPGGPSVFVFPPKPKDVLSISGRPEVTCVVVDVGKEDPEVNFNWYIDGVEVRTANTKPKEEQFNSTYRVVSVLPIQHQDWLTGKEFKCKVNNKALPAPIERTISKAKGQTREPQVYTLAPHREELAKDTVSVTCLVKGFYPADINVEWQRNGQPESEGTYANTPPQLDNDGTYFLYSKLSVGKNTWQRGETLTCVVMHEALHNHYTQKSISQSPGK
- assay_procedure: Biacore SPR, antigen on CM5 chip, mAb in flow
Give just the numeric value; s⁻¹ need not be written.

q: Looking for the measured koff of 6H8 (antibody, human IgG1, V domains shown) VH: EVQLVESGGGLVQPGGTLRLSCAASGFTFSNYWMHWVRQAPGKGLEWVSVIDRGGGGTRYADSVKGRFTISRDNAKNTLYLRMNSLKPEDTALYYCTRDRNGEYDYWGRGTQVTVSS VL: DIQMTQSPSSVTASAGEKVTINCKSSQSVLYSSNQKNYLAWYQQRLGQSPRLLIYWASTRESGVPDRFSGSGSTTDFTLTINNFQPEDAAVYYCQQGYSAPLTFGQGTKVELK , can you help?
a: 3.58e-06

q: Subsequent entry: 2F12 (antibody, human IgG1, V domains shown) VH: QVQLVESGGGLVQPGGSLRLSCAASGFTFSSYWMYWVRQAPGKGLEWVSAINTGGGSTYYADSVKGRFTISRDNAKNTLYLQMNSLKPEDTALYYCARGPGYSGKYIEGWAYWGQGTQVTVSS VL: DIVMTQSPRSVTASVGEKVFINCKSSQSVVSESNQRSYLNWYQQRPGQSPRLLIYYASTQESGLPDRFSGSGSTTDFTLTISSVQPEDAAVYYCQQAYSAPYSFGSGTRLEIK
a: 1.92e-05
